As an illustration, consider measured GI50 for molecules on MDA-MB-435.

Name the recorded GI50 of the molecule listed here: Nc1[nH]c(=O)ncc1CO
> 100 µM

Give the reported value of GI50 for this record: Oc1ccc(Cl)cc1Cc1cc(Cl)ccc1O
2.76 µM

Kindly indicate its recorded GI50. Item: CC(=O)N(Cc1ccccc1)c1ccccc1I(=O)=O
49.9 µM

Supply reported GI50 belonging to this molecule: C=[CH][Sn]([CH]=C)([O]c1cccc2cccnc12)[O]c1cccc2cccnc12
7.86 µM

Check the records and state GI50 for CN1CCN(c2nc(-c3ccncc3)nc3sc4c(c23)CCCCCC4)CC1
11.8 µM

Report measured GI50; entry is CC(=O)Oc1ccc(/C=N/NC(N)=S)nc1
5.14 µM

Give the value of GI50 reported for the following: O=c1c2ccccc2oc2ccc(OCCCCCCN3CCCCCC3)cc12
2.53 µM

Query GI50 for O=C(Nc1ccccc1C(=O)N/N=C(\c1ccccc1)c1ccccn1)c1ccc(F)cc1
0.602 µM

Please report GI50 for the following molecule: O=c1[nH]c2ccccc2n1-c1n[nH]c2ccccc12
23.7 µM

Please report GI50 for the following molecule: CCC(CC(C)C)Nc1ccc(NC(CC)CC(C)C)cc1 (stereo not drawn)
18.2 µM

Please give measured GI50 of the following entry: COc1cccc(C2NC(=S)NC(C)=C2C(=O)Nc2ccc(Cl)c(Cl)c2)c1 (stereo not drawn)
8.22 µM

State its GI50 for this molecule: CC/C=C\C/C=C\C[C@H](O)C/C=C1/C(=O)C=C[C@@H]1C/C=C\CCCC(=O)OC
1.21 µM

Answer with reported GI50 of CO[C@]1(CN2CCN3CCCC[C@@H]3C2)/C=C/C[C@H](C)[C@@H](C)S(=O)(=O)NC(=O)c2ccc3c(c2)N(C[C@@H]2CC[C@H]21)C[C@@]1(CCCc2cc(Cl)ccc21)CO3
1.05 µM

----------
# Test system: RPMI-8226 leukemia
Please answer using one outcome listed in active, inactive

Which outcome was entered for the compound O=C(Nc1ccccc1C(=O)N/N=C(\c1ccccc1)c1ccccn1)c1ccc(F)cc1 in this test?
inactive

Can you look up the reported call for CC1COCC(C)N1C1=C(Cl)C(=O)c2ccccc2C1=O (stereo not given) for me?
inactive

What call does the record list for O=c1[nH]c2ccccc2n1-c1n[nH]c2ccccc12 ?
inactive

Recorded test outcome, item N[C@@H]1CCCC[C@@H]1N.O=P([O-])([O-])CN(CP(=O)([O-])[O-])CP(=O)([O-])[O-].[Pt+2]
inactive

Can you look up the reported call for O=C(Cc1csc2nc(-c3ccc(Br)cc3)cn12)N/N=C/c1ccc(O)cc1 for me?
inactive

Dear colleague, could you share the recorded outcome for CC(=O)N(Cc1ccccc1)c1ccccc1I(=O)=O when you have a moment?
inactive

Status in this test for CC(=O)Oc1ccc(/C=N/NC(N)=S)nc1 ?
inactive

Please let me know the test result on file for O=c1c2ccccc2oc2ccc(OCCCCCCN3CCCCCC3)cc12 .
inactive

# lookup: test call for CC/C=C\C/C=C\C[C@H](O)C/C=C1/C(=O)C=C[C@@H]1C/C=C\CCCC(=O)OC
inactive

Hey, what did the test say about CO[C@]1(CN2CCN3CCCC[C@@H]3C2)/C=C/C[C@H](C)[C@@H](C)S(=O)(=O)NC(=O)c2ccc3c(c2)N(C[C@@H]2CC[C@H]21)C[C@@]1(CCCc2cc(Cl)ccc21)CO3 ?
active
